Test system: EKVX
protocol_summary: NCI tumour cell line growth inhibition, 48 h
Activity calls are given as the source filed them. No stated cut-off is given here; in the data, active = GI50 up to about 1.1 µM and inactive = higher.
Classes used: active, inactive

compound	label
CC(C)[C@]12O[C@H]1[C@@H]1O[C@]13[C@]1(O[C@H]1C[C@H]1C4=C(CC[C@@]13C)C(=O)OC4)[C@@H]2O [TRIPTOLIDE]	active
COc1ccccc1NC1Oc2cc3c(cc2C(c2cc(OC)c(OC)c(OC)c2)C1C)OCO3 (stereo not given)	inactive
CN(C)CCN(c1ccccn1)c1ccccn1	inactive
CNCCCn1c2ccccc2c2c3c(c(-c4ccsc4)cc21)C(=O)NC3=O	inactive
COCC1OC(S(=O)(=O)c2ccccc2)C(O)C(OC)C1OC (stereo not given)	inactive
O=[N+]([O-])C(Cl)=C/C(=C(\Cl)SCc1ccccc1)[N+](=O)[O-]	inactive
COC(=O)c1ccccc1NCc1cc(O)ccc1O	inactive
c1ccc2c(c1)OCCOCCOc1ccccc1OCCO2	inactive
CCCNC(=O)c1cc2ccccc2cc1C(=O)OC	inactive
OC1CCCC1C(O)(C(F)(F)F)C(F)(F)F (stereo not given)	inactive

----------
System: M14
protocol_summary: NCI tumour cell line growth inhibition, 48 h
The source made the active and inactive calls. Rule as the data show it: active = GI50 up to about 1.1 µM and inactive = higher.
observed_property: GI50

compound	endpoint_result
COc1cccc2c1C(=O)c1c(O)c3c(c(O)c1C2=O)C[C@@](O)(C(=O)CO)CC3OC1CC(NCCCCC(OC(C)=O)OC(C)=O)C(O)C(C)O1 (stereo not given in full)	0.00169 µM (active)
CCOC(=O)C(Br)(C(N)=O)C1(O)OC(c2ccccc2)=C(Br)C1=O (stereo not given)	28.4 µM (inactive)
CC(C)Cn1cnc2c(Sc3c([N+](=O)[O-])ncn3C)nc(N)nc21	> 52.2 µM (inactive)
CC(=O)N1C(Nc2ccccn2)CCN1c1ccccc1 (stereo not given)	> 10 µM (inactive)
O=C1c2cc(I)ccc2N2CCN=C2N1Cc1ccccc1	> 100 µM (inactive)
CCN(CCO)CCNc1ccc(C)c2sc3ccccc3c(=O)c12	1.78 µM (inactive)
CN(C)CC(CN(C)C)c1ccccn1	> 100 µM (inactive)
CC#CC#C/C=C1/O[C@]2(CCC(OC(=O)CC(C)C)CO2)[C@@H]2O[C@H]12 (stereo not given in full)	21.9 µM (inactive)
C/C=C\C(CC(=O)NCCC1CN(S(=O)(=O)C(F)(F)F)c2ccccc21)CC(=O)OC (stereo not given)	36.5 µM (inactive)
CC1CCC2[C@@H](C)COC3O[C@]4(C)CCC1C32OO4 (stereo not given in full)	> 100 µM (inactive)

----------
Test system: UO-31
protocol_summary: NCI tumour cell line growth inhibition, 48 h
Active and inactive are the calls of the source. Cut-off read from the data, not from the text of the source: active = GI50 up to about 1.1 µM and inactive = higher.
Labels: YES = active, NO = inactive

molecule	label
COC1OC(CBr)C(OC(c2ccccc2)(c2ccccc2)c2ccccc2)C(OC(c2ccccc2)(c2ccccc2)c2ccccc2)C1OC(c1ccccc1)(c1ccccc1)c1ccccc1 (stereo not given)	NO
O=C(O)CCSC1=NCCN1	NO
CCc1nc(N)nc(N)c1-c1ccc([N+](C)(C)C)cc1	NO
CCN(CCC#N)C(=O)Nc1ccccc1	NO
CN(C)CCNC(=O)c1cc([N+](=O)[O-])cc2c1Oc1ccccc1O2	NO
O=C1OCC/C1=C/c1ccc(/N=N/c2c(O)ccc3ccccc23)cc1	NO
Cc1cccc2c1Oc1cc(Cl)ccc1C2NC(=O)CCN1CCOCC1 (stereo not given)	NO
Cc1nc(-c2ccccc2)cc2c1c(=O)oc1ccccc12	NO
CC1CCC2[C@@H](C)COC3O[C@]4(C)CCC1C32OO4 (stereo not given in full)	NO
CCC(/C=C/c1ccccc1)=N\NC(=S)N/N=C(/C=C/c1ccccc1)CC	NO
CC1(C)N=C(/C(Cl)=[N+](/[O-])C(=O)c2ccc(F)cc2)C(C)(C)N1O	NO
O=C(O)CCCCCNC(=O)CCC(CN(CC(=O)OCc1ccccc1)CC(=O)OCc1ccccc1)N(CC(=O)OCc1ccccc1)CC(=O)OCc1ccccc1 (stereo not given)	NO
CC/C=C/c1cc2c(c3[nH]ccc13)[C@@H](C)CC2C.CC/C=C/c1cc2cc[nH]c2c2c1C(C)C[C@@H]2C.CCc1cc2c(c3[nH]ccc13)[C@@H](C)CC2C (stereo not given in full)	NO
CCOC(=O)C(C)Sc1nnc(COc2ccccc2OC)n1-c1ccccc1 (stereo not given)	NO
C/C(=N\Nc1nc2cc(C(F)(F)F)ccc2s1)c1ccccn1	YES
O=[N+]([O-])[C@@H]1C2C=CC(C2)[C@H]1Cl (stereo not given in full)	NO
CCOc1ccc(OCC(=O)O)c2c1CCCC2=O	NO
CC(C)=CCC[C@@H](C)C1=C(O)C(=O)C(C)=C(Nc2ccccc2F)C1=O	NO
Cc1nc(Nc2ccc(Cl)cc2)sc1C(=O)NNc1ccc([N+](=O)[O-])cc1[N+](=O)[O-]	NO
CCOC(=O)c1c(-c2ccc(O)c(OC)c2)c(C#N)c(=S)n(C2OC(CO)C(O)C(O)C2O)c1-c1ccccc1 (stereo not given)	NO

----------
Recorded GI50 by entry
Test system: 786-0
protocol_summary: NCI tumour cell line growth inhibition, 48 h
Activity calls are given as the source filed them. Rule as the data show it: active = GI50 up to about 1.1 µM and inactive = higher.

compound	GI50
Nn1c(-c2ccccc2Cl)nc2ccccc2c1=O	> 100 µM (inactive)
Cc1c2ccc3ccccc3c2c[n+]2ccccc12	2.37 µM (inactive)
OC(C1CCC=NN1C(O)(C(F)(F)F)C(F)(F)F)(C(F)(F)F)C(F)(F)F (stereo unspecified)	> 10 µM (inactive)
Cn1c(=O)c2c(nc3n(CCCCl)c(=O)ccn23)n(C)c1=O	> 100 µM (inactive)
CCOC(=O)Cn1c2ccc(Br)cc2c2nc3ccccc3nc21	> 100 µM (inactive)
COCC1OC(S(=O)(=O)c2ccccc2)C(O)C(OC)C1OC (stereo unspecified)	> 100 µM (inactive)

----------
System: SN12C
protocol_summary: NCI tumour cell line growth inhibition, 48 h
The source made the active and inactive calls. Rule as the data show it: active = GI50 up to about 1.1 µM and inactive = higher.
Labels: active, inactive

compound	label
COc1ccc(C(=O)c2c(C(C(=O)c3ccc(OC)cc3)C(=O)c3ccc(OC)cc3)n(C(=O)c3ccc(OC)cc3)c3ccccc23)cc1	inactive
CC1=C(C(=O)N[C@@H](Cc2ccccc2)C(=O)O)N2C(=O)[C@@H](NC(=O)[C@@H](N)CC(C)C)[C@H]2SC1	inactive
CC(NC(=O)C(C)C(=O)NCc1ccc(C(F)(F)F)cc1)C(N)=O (stereo unspecified)	inactive
COc1ccc(C2=NNC(c3cc4cc(Br)ccc4nc3Cl)C2)cc1 (stereo unspecified)	inactive
O=C1CC(c2ccccc2)NCN1 (stereo unspecified)	inactive
COC(=O)C1=C(C)N2[C@H](C(=O)O)CO[C@@]2(C)[C@H](C(=O)OC)[C@H]1c1cccc([N+](=O)[O-])c1	inactive
CCCCC(=C=C(C)CO)C1CCCN1C(=O)OC(C)(C)C (stereo unspecified)	inactive
CCc1cc(CCC(=O)Nc2c(C)cccc2C)n[nH]1	inactive
Nn1c(-c2ccccc2Cl)nc2ccccc2c1=O	inactive
C/C=C/CP(=O)(c1ccccc1)c1ccccc1	inactive
COc1ccc2cc3n(c(=O)c2c1)CCc1c-3cc(OC)c(OC)c1OC	inactive
N=C(c1ccc(-c2cn3cc(C(=N)N4CCCC4)ccc3n2)cc1)N1CCCC1	inactive
C/C=C(/C)C(=O)O[C@@H]1c2c(C)coc2C[C@H]2CC[C@H](O)[C@H](C)[C@]21C	inactive
CN(C)CCC(C(=O)C(C)(C)C)c1ccccn1 (stereo unspecified)	inactive
COc1ccc2c(c1)[nH]c1c(/C=C/c3ccccc3)nccc12	inactive
CCOC(=O)C1(C(=O)OCC)COS(=O)OC1	inactive
COc1cc2c(cc1OC)[Se]c1cc(OC)c(OC)cc1[Se]2	inactive
O=C(O)CCCCCNC(=O)CCC(CN(CC(=O)OCc1ccccc1)CC(=O)OCc1ccccc1)N(CC(=O)OCc1ccccc1)CC(=O)OCc1ccccc1 (stereo unspecified)	inactive
Cc1c(C(=O)/C=C/c2ccccc2O)c(=O)n(-c2ccccc2)n1C	inactive
COC(=O)c1ccccc1NCc1cc(O)ccc1O	inactive
CCCCCCCCCCCCCCCCC1=CC(=O)C=C(OC)C1=O	inactive
OCCOc1ccccc2cccc1-2	inactive
Cc1ccc(-c2nc3c(C(=O)NCCN(C)C)cccc3[nH]2)cc1	inactive
CC(=O)[C@@]1(C)CC2(CCN(C)CC2)OC1C (stereo partly specified)	inactive
C[N+](C)(C)CC(=O)N/N=C(/CC1OC(=O)c2ccccc21)c1ccccc1O (stereo unspecified)	inactive
CCN(CC)c1nc(N(C)C)c2ccc(OC)cc2n1	inactive
COc1c(O)c2c3c(cc(C)cc3c1C(C)C)OC2	inactive
Cc1cccc(C)c1NC(=O)CCCC(=O)C(C#N)c1ccccc1 (stereo unspecified)	inactive
COC1/C=C/C(C)C(C(C)C(OC)C(C)CCC(=O)C(C)C(C/C=C/N(C)C=O)OC)OC(=O)/C=C/C=C(\C)CC(OC)C(OC)C2=CC(=O)O[C@@H](C(C)C(OC)CC(OC)/C=C/C(C)C(O)C1)[C@H]2O (stereo partly specified)	active
O=C(Nc1nc(C23CC4CC(CC(C4)C2)C3)cs1)c1cc2ccc(O)cc2oc1=O	inactive
Cc1cc(-c2nc3cc(F)c(F)cc3s2)ccc1N	inactive
O=[N+]([O-])c1cc2c(c([N+](=O)[O-])c1)NCc1ccccc1O2	inactive
CC(=O)Nc1c2sscc-2n(C)c1=O [THIOLUTIN]	inactive
COc1c(C)c(C/C=C(\C)CCCCO[Si](c2ccccc2)(c2ccccc2)C(C)(C)C)c(OC)c(OC)c1OC	inactive
CCN(CC)CCOC(c1ccccc1)c1ccccc1.CCOC(=O)Nc1ccc(S(=O)(=O)OC)cc1.CCOC(=O)Nc1ccc(S(=O)(=O)OC)cc1.Nc1ccc(C(=O)O)c(O)c1	inactive
COC(=O)/C=C\[C@H]1[C@H](C)N1S(=O)(=O)c1ccc(C)cc1 (stereo partly specified)	inactive
O=C(O)c1ccccc1C(=O)Nn1cnnc1	inactive
CCc1cc(C)cc2[n+]1CC=C2C.[O-][Cl+3]([O-])([O-])[O-]	inactive
CCOC(OCC)(OCC)C(Br)CC (stereo unspecified)	inactive
COC1OC(CBr)C(OC(c2ccccc2)(c2ccccc2)c2ccccc2)C(OC(c2ccccc2)(c2ccccc2)c2ccccc2)C1OC(c1ccccc1)(c1ccccc1)c1ccccc1 (stereo unspecified)	inactive
O=C(Cc1ccccc1)Nn1c(-c2ccccc2)nc2ccccc2c1=O	inactive

Data origin, for the record: ChEMBL document CHEMBL1201862
